TARGET SYSTEM: Integrin alpha-V/beta-3 (Homo sapiens, UniProt P05106+P06756)
Sequence (P05106 27-788 limits assumed): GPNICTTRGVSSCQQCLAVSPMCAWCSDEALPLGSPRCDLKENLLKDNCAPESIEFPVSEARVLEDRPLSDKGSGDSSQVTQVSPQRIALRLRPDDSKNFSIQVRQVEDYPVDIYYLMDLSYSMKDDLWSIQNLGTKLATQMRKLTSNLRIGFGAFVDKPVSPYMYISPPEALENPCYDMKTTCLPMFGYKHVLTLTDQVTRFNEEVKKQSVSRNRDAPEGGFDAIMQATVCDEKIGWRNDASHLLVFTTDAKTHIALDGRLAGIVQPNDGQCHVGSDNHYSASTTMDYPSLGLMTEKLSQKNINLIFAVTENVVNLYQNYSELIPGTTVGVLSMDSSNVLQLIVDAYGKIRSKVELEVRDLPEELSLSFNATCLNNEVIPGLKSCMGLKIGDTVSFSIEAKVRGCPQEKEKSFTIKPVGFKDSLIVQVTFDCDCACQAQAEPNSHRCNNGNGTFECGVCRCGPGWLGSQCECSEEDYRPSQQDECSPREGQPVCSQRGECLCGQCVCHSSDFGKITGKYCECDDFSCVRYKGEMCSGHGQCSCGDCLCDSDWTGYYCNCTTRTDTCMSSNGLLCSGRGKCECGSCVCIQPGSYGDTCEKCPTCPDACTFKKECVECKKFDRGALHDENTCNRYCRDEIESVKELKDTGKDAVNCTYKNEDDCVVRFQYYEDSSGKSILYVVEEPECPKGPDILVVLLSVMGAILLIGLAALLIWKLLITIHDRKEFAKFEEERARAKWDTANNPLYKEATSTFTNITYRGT
Sequence (P06756 31-889 limits assumed): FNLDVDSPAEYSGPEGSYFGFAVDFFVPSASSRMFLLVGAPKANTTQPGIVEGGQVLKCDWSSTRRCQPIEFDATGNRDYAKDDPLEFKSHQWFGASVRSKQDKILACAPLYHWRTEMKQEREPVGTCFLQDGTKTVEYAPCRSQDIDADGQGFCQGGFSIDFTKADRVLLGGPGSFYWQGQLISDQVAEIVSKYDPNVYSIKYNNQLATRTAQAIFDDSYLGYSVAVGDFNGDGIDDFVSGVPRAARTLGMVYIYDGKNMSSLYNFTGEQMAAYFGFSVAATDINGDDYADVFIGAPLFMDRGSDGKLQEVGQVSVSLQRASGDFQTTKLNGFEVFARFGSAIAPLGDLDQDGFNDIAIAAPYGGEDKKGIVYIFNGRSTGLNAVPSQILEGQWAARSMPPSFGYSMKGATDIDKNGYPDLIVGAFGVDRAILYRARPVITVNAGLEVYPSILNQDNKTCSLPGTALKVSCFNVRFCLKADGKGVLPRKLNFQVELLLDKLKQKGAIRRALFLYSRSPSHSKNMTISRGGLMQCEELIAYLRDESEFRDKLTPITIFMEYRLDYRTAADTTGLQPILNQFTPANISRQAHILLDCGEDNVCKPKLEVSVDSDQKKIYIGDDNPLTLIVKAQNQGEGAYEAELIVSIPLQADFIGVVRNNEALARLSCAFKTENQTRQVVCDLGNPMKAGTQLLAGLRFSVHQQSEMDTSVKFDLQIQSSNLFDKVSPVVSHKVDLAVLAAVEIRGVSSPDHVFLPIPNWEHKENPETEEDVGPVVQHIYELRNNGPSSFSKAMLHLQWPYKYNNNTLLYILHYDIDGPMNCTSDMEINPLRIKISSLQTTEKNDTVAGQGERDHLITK
Sequence (P06756 891-1048 limits assumed): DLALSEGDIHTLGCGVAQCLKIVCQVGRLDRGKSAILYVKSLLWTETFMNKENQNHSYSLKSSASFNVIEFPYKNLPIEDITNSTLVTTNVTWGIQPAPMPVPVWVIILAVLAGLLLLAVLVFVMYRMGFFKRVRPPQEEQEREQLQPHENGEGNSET
ASSAY SUMMARY: Inhibition of integrin alpha-v/beta-3 mediated M21 cell adhesion to vitronectin with monoclonal antibody P1F6
Assay type: functional, cell-based
pIC50: −log10 of the molar value.
PROPERTY LABEL: pIC50

(A) O=C(O)CC(NC(=O)CNC(=O)CCCNc1ccccn1)c1cccc([N+](=O)[O-])c1 (stereo not given)
(B) Cc1ccnc(NCCCC(=O)NCC(=O)NC(CC(=O)O)c2cccc(OC(F)(F)F)c2)c1 (stereo not given)
(C) Cc1ccnc(NCCCCC(=O)NNC(=O)CC(CC(=O)O)c2ccc(-c3ccccc3)cc2)c1 (stereo not given)
Query block: Arrange these molecules by their pIC50, starting with the largest number. State the ranking by listing the labels in the requested order.
Result block: C, A, B
